Target Desc: T1, recombinant canine Nerve Growth Factor (Canis lupus familiaris NGF) (canine (Canis lupus familiaris), UniProt Q29074 110-229 (pig entry), limits assumed)
T1 construct: also called canine NGF; Dog NGF
T1 chain: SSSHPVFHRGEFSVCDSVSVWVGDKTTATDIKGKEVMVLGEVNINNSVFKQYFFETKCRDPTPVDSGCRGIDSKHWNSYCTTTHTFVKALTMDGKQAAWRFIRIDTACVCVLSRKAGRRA
Assay Explanation: SPR, 1:1 binding fit, canine NGF
Known Kd of a selection of binders

Binder | Reading Unit | Kd
LTM135 (HC G103A, LC H32N) (antibody, V domains shown, Point mutant of canE3M65 as full IgG) VH: EVQLVESGGDLARPGGSLKLSCVVSGFSLIGYDINWVRQAPGKGLQWVTMIWGDGTTDYNSALKSRFTVSRDNAMNTVYLQMNSLRVEDTAVYYCARGGYYYATSYYFDYWGQGTLVTVSS VL: DIVMTQTPLSLSVSPGETASISCRASQDISNNLNWFRQKPGQSPQRLIYYISRFHSGVPDRFSGSGSGTDFTLRISRVEADDTGVYYCQQSKTLPYTFGAGTKLEIK | nM | 1.69
SSM-19 (LC SSMwtLCR53S, HC SSMwtHCD54T, L63I) (antibody, V domains shown) VH: EVQLVESGGDLARPGGSLKLSCVVSGFSLIGYDINWVRQAPGKGLQWVTMIWGTGTTDYNSAIKSRFTVSRDNAMNTVYLQMNSLRVEDTAVYYCARGGYYYGTSYYFDYWGQGTLVTVSS VL: DIVMTQTPLSLSVSPGETASISCRASQDISNHLNWFRQKPGQSPQRLIYYISSFHSGVPDRFSGSGSGTDFTLRISRVEADDTGVYYCQQSKTLPYTFGAGTKLEIK | nM | 37.4
SSM-8 (LC E3M, HC SSMwtHCD54T, L63I) (antibody, V domains shown) VH: EVQLVESGGDLARPGGSLKLSCVVSGFSLIGYDINWVRQAPGKGLQWVTMIWGTGTTDYNSAIKSRFTVSRDNAMNTVYLQMNSLRVEDTAVYYCARGGYYYGTSYYFDYWGQGTLVTVSS VL: DIVMTQTPLSLSVSPGETASISCRASQDISNHLNWFRQKPGQSPQRLIYYISRFHSGVPDRFSGSGSGTDFTLRISRVEADDTGVYYCQQSKTLPYTFGAGTKLEIK | nM | 41.8

Ref: patent US20150147318A1
